- tgt: Escherichia coli DNA gyrase A/B tetramer (Escherichia coli (strain K12), UniProt P0AES4+P0AES6)
- method-notes: DNA gyrase supercoiling activity fluorescence polarisation assay
- Format: biochemical
- assay-conditions: Eco Gyr FP Mean IC50, E. coli DNA gyrase supercoiling, 0.3 mM ATP
// pIC50 lookup, one value per entry
Hey, just a heads up that pIC50 is the negative log base 10 of the concentration in molar.

Record excerpt, results attached:
{"compound": "C[C@@H]1CN2c3c(cc4c(N5C(=O)OC[C@@H]5CF)noc4c3F)CC3(C(=O)NC(=O)NC3=O)[C@H]2[C@H](C)O1 [Example 15]", "pIC50": 6.89}
{"compound": "C[C@@H]1CN2c3c(cc4c(N5C(=O)OC[C@@H]5C#N)noc4c3F)CC3(C(=O)NC(=O)NC3=O)[C@H]2[C@H](C)O1 [Example 41]", "pIC50": 6.34}
{"compound": "C[C@@H]1CN2c3c(cc4c(N5C(=O)OC[C@@H]5c5ccncc5)noc4c3F)CC3(C(=O)NC(=O)NC3=O)[C@H]2[C@H](C)O1 [Example 58]", "pIC50": 5.82}

Let us examine a further case.
For C[C@@H]1CN2c3c(cc4c(N5CCOC5=O)noc4c3F)CC3(C(=O)NC(=O)NC3=O)[C@H]2[C@H](C)O1 [Example 1] , what is its reported pIC50? 5.89

* * *

The following compounds are listed with their measured MIC values.
- Tested on: Staphylococcus aureus
- method-notes: Susceptibility testing (MIC) Assay 1, broth microdilution
- Type: cell-based
- assay-conditions: Staphylococcus aureus, in vivo strain, MRQR; read-out: Sau(e) MIC
Please respond with the number in µM and leave the unit unwritten.

Sample answers from the record:
{"compound": "C[C@@H]1CN2c3c(cc4c(N5CC(C)(C)OC5=O)noc4c3F)CC3(C(=O)NC(=O)NC3=O)[C@H]2[C@H](C)O1 (racemic)", "MIC [µM]": 3.1}
{"compound": "C[C@@H]1CN2c3c(cc4c(N5C(=O)OC[C@@H]5CF)noc4c3F)CC3(C(=O)NC(=O)NC3=O)[C@H]2[C@H](C)O1", "MIC [µM]": 0.78}
{"compound": "CC[C@H]1CN(c2noc3c(F)c4c(cc23)CC2(C(=O)NC(=O)NC2=O)[C@H]2[C@H](C)O[C@H](C)CN42)C(=O)O1", "MIC [µM]": 0.78}
{"compound": "C[C@@H]1CN2c3c(cc4c(N5C(=O)OC[C@H]5c5ncnn5C)noc4c3F)CC3(C(=O)NC(=O)NC3=O)[C@H]2[C@H](C)O1", "MIC [µM]": 25}

Look up MIC with Staphylococcus aureus for this compound: C[C@@H]1CN2c3c(cc4c(N5C(=O)OC[C@@H]5CCCO)noc4c3Cl)CC3(C(=O)NC(=O)NC3=O)[C@H]2[C@H](C)O1 12

* * *

- Tested on: Staphylococcus aureus
- method-notes: Susceptibility testing (MIC) Assay 1, broth microdilution
- Format: cell-based
- assay-conditions: Staphylococcus aureus, in vivo strain, MRQR; read-out: Sau(e) MIC
Measured MIC, listed per entry.
Express the result in µM but write the number alone.

{"structure-as-smiles": "C[C@@H]1CN(c2noc3c(Cl)c4c(cc23)CC2(C(=O)NC(=O)NC2=O)[C@H]2[C@H](C)O[C@H](C)CN42)C(=O)O1", "numeric-result": 0.78}
{"structure-as-smiles": "C[C@@H]1CN2c3c(cc4c(N5C[C@@H](c6ccccn6)OC5=O)noc4c3F)CC3(C(=O)NC(=O)NC3=O)[C@H]2[C@H](C)O1", "numeric-result": 0.78}
{"structure-as-smiles": "CCOC[C@H]1COC(=O)N1c1noc2c(F)c3c(cc12)CC1(C(=O)NC(=O)NC1=O)[C@H]1[C@H](C)O[C@H](C)CN31", "numeric-result": 0.78}
{"structure-as-smiles": "C[C@@H]1CN2c3c(cc4c(N5C(=O)OC[C@@H]5C)noc4c3F)CC3(C(=O)NC(=O)NC3=O)[C@H]2[C@H](C)O1", "numeric-result": 0.78}
{"structure-as-smiles": "CON=C[C@H]1CN(c2noc3c(F)c4c(cc23)CC2(C(=O)NC(=O)NC2=O)[C@H]2[C@H](C)O[C@H](C)CN42)C(=O)O1", "numeric-result": 0.78}

Attention now shifts to the item below.
Look at this molecule and give its reported MIC. C[C@@H]1CN2c3c(cc4c(N5C(=O)OC[C@@H]5c5ccccc5)noc4c3F)CC3(C(=O)NC(=O)NC3=O)[C@H]2[C@H](C)O1 0.78

* * *

- tgt: Escherichia coli DNA gyrase A/B tetramer (Escherichia coli (strain K12), UniProt P0AES4+P0AES6)
- method-notes: DNA gyrase supercoiling activity fluorescence polarisation assay
- Format: biochemical
- assay-conditions: Eco Gyr FP Mean IC50, E. coli DNA gyrase supercoiling, 0.3 mM ATP
parameter: pIC50
Quick note: pIC50 means taking -log10 of the concentration in moles per liter.

Solved entries:
{"compound": "C[C@@H]1CN2c3c(cc4c(N5C(=O)OC[C@@H]5c5ccccc5)noc4c3F)CC3(C(=O)NC(=O)NC3=O)[C@H]2[C@H](C)O1", "pIC50": 6.15}
{"compound": "CSC[C@H]1COC(=O)N1c1noc2c(F)c3c(cc12)CC1(C(=O)NC(=O)NC1=O)[C@H]1[C@H](C)O[C@H](C)CN31", "pIC50": 6.59}
{"compound": "C[C@@H]1CN2c3c(cc4c(N5C(=O)OC[C@@H]5[C@H](C)O)noc4c3F)CC3(C(=O)NC(=O)NC3=O)[C@H]2[C@H](C)O1", "pIC50": 6.21}
{"compound": "C[C@@H]1CN2c3c(cc4c(N5C(=O)OC[C@@H]5CCCO)noc4c3F)CC3(C(=O)NC(=O)NC3=O)[C@H]2[C@H](C)O1", "pIC50": 6.57}
{"compound": "CO[C@@H](C)[C@@H]1COC(=O)N1c1noc2c(F)c3c(cc12)CC1(C(=O)NC(=O)NC1=O)[C@H]1[C@H](C)O[C@H](C)CN31", "pIC50": 6.02}

Which pIC50 reading was recorded for the compound C[C@@H]1CN2c3c(cc4c(N5C[C@H](C=NO)OC5=O)noc4c3F)CC3(C(=O)NC(=O)NC3=O)[C@H]2[C@H](C)O1 ? 6.42

// returns reported pIC50 for input COC[C@H]1COC(=O)N1c1noc2c(F)c3c(cc12)CC1(C(=O)NC(=O)NC1=O)[C@H]1[C@H](C)O[C@H](C)CN31 (single isomer, unassigned) [Example 67] 6.48

Item CC[C@@H]1COC(=O)N1c1noc2c(F)c3c(cc12)CC1(C(=O)NC(=O)NC1=O)[C@H]1[C@H](C)O[C@H](C)CN31 has what recorded pIC50? 5.01

May I ask what pIC50 has been recorded for C[C@@H]1CN(c2noc3c(Cl)c4c(cc23)CC2(C(=O)NC(=O)NC2=O)[C@H]2[C@H](C)O[C@H](C)CN42)C(=O)O1 ? 6.68

Which pIC50 is reported for this compound? C[C@@H]1CN2c3c(cc4c(N5C(=O)OC[C@@H]5C)noc4c3Cl)CC3(C(=O)NC(=O)NC3=O)[C@H]2[C@H](C)O1 6.77

Can you look up the measured pIC50 of C[C@@H]1CN2c3c(cc4c(N5C(=O)OC[C@H]5c5ncccn5)noc4c3F)CC3(C(=O)NC(=O)NC3=O)[C@H]2[C@H](C)O1 for me? 6.42

Field request: pIC50 | item: COC[C@H]1CN(c2noc3c(F)c4c(cc23)CC2(C(=O)NC(=O)NC2=O)[C@H]2[C@H](C)O[C@H](C)CN42)C(=O)O1 6.23

GET /values?readout=pIC50&item= C[C@@H]1CN2c3c(cc4c(N5C[C@@H](C#N)OC5=O)noc4c3F)CC3(C(=O)NC(=O)NC3=O)[C@H]2[C@H](C)O1 6.26

Look up pIC50 for this compound: C=CC[C@H]1COC(=O)N1c1noc2c(F)c3c(cc12)CC1(C(=O)NC(=O)NC1=O)[C@H]1[C@H](C)O[C@H](C)CN31 6.59

Any idea what pIC50 was measured for COC[C@H]1CN(c2noc3c(Cl)c4c(cc23)CC2(C(=O)NC(=O)NC2=O)[C@H]2[C@H](C)O[C@H](C)CN42)C(=O)O1 ? 6.27

* * *

- tgt: Escherichia coli DNA gyrase A/B tetramer (Escherichia coli (strain K12), UniProt P0AES4+P0AES6)
- method-notes: DNA gyrase supercoiling activity fluorescence polarisation assay
- Format: biochemical
- assay-conditions: Eco Gyr FP Mean IC50, E. coli DNA gyrase supercoiling, 0.3 mM ATP
Below: a set of entries, each annotated with reported IC50.
Remember to put the unit after the number in your answer.

Please review the following examples before continuing.
{"compound": "CCOC[C@H]1COC(=O)N1c1noc2c(F)c3c(cc12)CC1(C(=O)NC(=O)NC1=O)[C@H]1[C@H](C)O[C@H](C)CN31 [Example 49]", "parameter": "IC50", "result": "380 nM"}
{"compound": "C[C@@H]1CN2c3c(cc4c(N5C(=O)OC[C@@H]5CS(C)(=O)=O)noc4c3F)CC3(C(=O)NC(=O)NC3=O)[C@H]2[C@H](C)O1 [Example 46]", "parameter": "IC50", "result": "170 nM"}
{"compound": "C[C@@H]1CN2c3c(cc4c(N5C(=O)OC[C@@H]5c5ccccn5)noc4c3F)CC3(C(=O)NC(=O)NC3=O)[C@H]2[C@H](C)O1 [Example 56]", "parameter": "IC50", "result": "1900 nM"}
{"compound": "C[C@@H]1CN(c2noc3c(F)c4c(cc23)CC2(C(=O)NC(=O)NC2=O)[C@H]2[C@H](C)O[C@H](C)CN42)C(=O)O1 [Example 4]", "parameter": "IC50", "result": "390 nM"}
{"compound": "C[C@@H]1CN2c3c(cc4c(N5C(=O)OC[C@H]5c5ccccc5)noc4c3F)CC3(C(=O)NC(=O)NC3=O)[C@H]2[C@H](C)O1 [Example 8]", "parameter": "IC50", "result": "7300 nM"}

Entry C[C@@H]1CN2c3c(cc4c(N5C(=O)OC[C@@H]5[C@H](O)CO)noc4c3F)CC3(C(=O)NC(=O)NC3=O)[C@H]2[C@H](C)O1 [Example 73] : reported IC50 = ? 340 nM

Recorded IC50 for C[C@@H]1CN2c3c(cc4c(N5C(=O)OC[C@@H]5CCCF)noc4c3F)CC3(C(=O)NC(=O)NC3=O)[C@H]2[C@H](C)O1 [Example 30] , please? 500 nM

Item under review: C[C@@H]1CN2c3c(cc4c(N5C(=O)O[C@H](C)[C@@H]5CF)noc4c3F)CC3(C(=O)NC(=O)NC3=O)[C@H]2[C@H](C)O1 [Example 78] . Reported IC50? 440 nM
